# key: entry, value: IC50
- test-target: hSSTR2 (Homo sapiens, UniProt P30874)
- Construct: expressed in transfected cells; host or cells: CHO-K1 or CCL39 cells
- Sequence (P30874 whole entry): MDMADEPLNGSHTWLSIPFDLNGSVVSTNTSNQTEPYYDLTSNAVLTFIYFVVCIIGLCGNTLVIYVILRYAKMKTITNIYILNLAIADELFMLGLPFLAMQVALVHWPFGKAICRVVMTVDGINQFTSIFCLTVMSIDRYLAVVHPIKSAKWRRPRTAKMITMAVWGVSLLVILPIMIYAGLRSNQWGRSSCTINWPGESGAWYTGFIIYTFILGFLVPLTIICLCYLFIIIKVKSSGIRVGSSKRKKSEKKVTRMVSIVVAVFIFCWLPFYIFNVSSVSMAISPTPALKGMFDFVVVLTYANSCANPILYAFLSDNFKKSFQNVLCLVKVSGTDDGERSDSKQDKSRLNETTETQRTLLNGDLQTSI
- assay-summary: Receptor autoradiography, displacement of 125I-[Leu8,D-Trp22,Tyr25]-SRIF-28 from membrane pellet sections
- Assay type: binding
- condition-details: Table 3; mean ± SEM when N ≧ 3; read-out: sst2 binding affinity (IC50)
Bridge positions count the residues as written; N and C are the ends. Square brackets hold non-standard residues; d marks the D form. Peptide text beside a SMILES is read from it. dPhe(4-NHCONH2) = NC(=O)Nc1ccc(C[C@@H](N)C(=O)O)cc1; Phe(4-NHCONH2) = NC(=O)Nc1ccc(C[C@H](N)C(=O)O)cc1; Phe(4-Cl) = N[C@@H](Cc1ccc(Cl)cc1)C(=O)O; 2Nal = N[C@@H](Cc1ccc2ccccc2c1)C(=O)O; NMeK = CN[C@@H](CCCCN)C(=O)O

Recorded results for 2 compounds are shown here.
C[C@@H](O)[C@@H]1NC(=O)[C@H](CCCCN)NC(=O)[C@@H](Cc2c[nH]c3ccccc23)NC(=O)[C@H](Cc2ccc(NC(N)=O)cc2)NC(=O)[C@H](NC(=O)[C@@H](N)Cc2ccc(Cl)cc2)CSSC[C@@H](C(=O)N[C@H](Cc2ccc(NC(N)=O)cc2)C(=O)NCC(=O)O)NC1=O [compound 22] (H-[Phe(4-Cl)][dC][Phe(4-NHCONH2)][dW]KTC[dPhe(4-NHCONH2)]G-OH; disulfide 2-7); 0.052 µM
C[C@@H](O)[C@@H]1NC(=O)[C@H](CCCCN)NC(=O)[C@@H](Cc2c[nH]c3ccccc23)NC(=O)[C@H](Cc2ccc(NC(N)=O)cc2)NC(=O)[C@H](NC(=O)[C@@H](N)Cc2ccc(Cl)cc2)CSSC[C@@H](C(=O)N[C@@H](CC2CCCCC2)C(N)=O)NC1=O; 0.0041 µM

Consider now this further compound.
Task: Please report the recorded IC50 for C[C@@H](O)[C@@H]1NC(=O)[C@H](CCCCN)N(C)C(=O)[C@@H](Cc2c[nH]c3ccccc23)NC(=O)[C@H](Cc2ccc(O)cc2)NC(=O)[C@H](NC(=O)[C@@H](N)Cc2ccc(Cl)cc2)CSSC[C@@H](C(=O)N[C@@H](Cc2ccc3ccccc3c2)C(N)=O)NC1=O [compound 8, reference compound] (H-[Phe(4-Cl)][dC]Y[dW][NMeK]TC[2Nal]-NH2; disulfide 2-7) .
Result: 0.01 µM

====

# key: entry, value: pIC50
- test-target: hSSTR3 (Homo sapiens)
- Construct: expressed in transfected cells; host or cells: CHO-K1 or CCL39 cells
- Sequence (P32745 whole entry): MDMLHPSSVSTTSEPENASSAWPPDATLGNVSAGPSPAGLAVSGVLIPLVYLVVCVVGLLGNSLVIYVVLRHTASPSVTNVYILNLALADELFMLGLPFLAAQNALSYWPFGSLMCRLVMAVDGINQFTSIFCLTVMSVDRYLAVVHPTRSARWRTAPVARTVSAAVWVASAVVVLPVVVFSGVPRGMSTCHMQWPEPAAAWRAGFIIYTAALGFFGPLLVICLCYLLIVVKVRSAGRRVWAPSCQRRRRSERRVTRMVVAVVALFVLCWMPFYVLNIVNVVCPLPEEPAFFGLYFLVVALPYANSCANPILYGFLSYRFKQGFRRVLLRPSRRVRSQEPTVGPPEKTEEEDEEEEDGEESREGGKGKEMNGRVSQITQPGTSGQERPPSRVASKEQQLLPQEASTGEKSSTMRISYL
- assay-summary: Receptor autoradiography, displacement of 125I-[Leu8,D-Trp22,Tyr25]-SRIF-28 from membrane pellet sections
- Assay type: binding
- condition-details: Table 3; mean ± SEM when N ≧ 3; read-out: sst3 binding affinity (IC50)
- Description: Generally, recombinant cells expressing the receptor are washed and homogenized to prepare a crude protein homogenate in a suitable buffer. […] Candidate substances, such as potential SRIF agonists and antagonists, are added to the admixture in convenient concentrations, and the interaction between the candidate substance and the receptor polypeptide is monitored. […]
Bridge positions count the residues as written; N and C are the ends. Square brackets hold non-standard residues; d marks the D form. Peptide text beside a SMILES is read from it. * marks the point of attachment. Phe(4-NO2) = N[C@@H](Cc1ccc([N+](=O)[O-])cc1)C(=O)O; dPhe(4-NHCONH2) = NC(=O)Nc1ccc(C[C@@H](N)C(=O)O)cc1; Phe(4-NHCONH2) = NC(=O)Nc1ccc(C[C@H](N)C(=O)O)cc1; Trp(5-F) = N[C@@H](Cc1c[nH]c2ccc(F)cc12)C(=O)O; Phe(4-Cl) = N[C@@H](Cc1ccc(Cl)cc1)C(=O)O; X1 = NC(=O)N[C@@H](Cc1ccc(Cl)cc1)C(=O)*; 2Nal = N[C@@H](Cc1ccc2ccccc2c1)C(=O)O; NMeK = CN[C@@H](CCCCN)C(=O)O
# pIC50: negative log10 of molar concentration; output just the value

Recorded results for 10 molecules are shown here.
C[C@@H](O)[C@@H]1NC(=O)[C@H](CCCCN)NC(=O)[C@@H](Cc2c[nH]c3ccccc23)NC(=O)[C@H](Cc2ccc(NC(N)=O)cc2)NC(=O)[C@H](NC(=O)[C@@H](N)Cc2ccc(Cl)cc2)CSSC[C@@H](C(=O)N[C@H](Cc2ccc(NC(N)=O)cc2)C(N)=O)NC1=O [compound 20]; 6.48
C[C@@H](O)[C@@H]1NC(=O)[C@H](CCCCN)NC(=O)[C@@H](Cc2c[nH]c3ccccc23)NC(=O)[C@H](Cc2ccc(NC(=O)NO)cc2)NC(=O)[C@H](NC(=O)[C@@H](N)Cc2ccc(Cl)cc2)CSSC[C@@H](C(=O)N[C@@H](Cc2ccc3ccccc3c2)C(N)=O)NC1=O [compound 24]; 6.92
C[C@@H](O)[C@@H]1NC(=O)[C@H](CCCCN)NC(=O)[C@@H](Cc2c[nH]c3ccccc23)NC(=O)[C@@H](N(C)C(=O)c2ccccc2)NC(=O)[C@H](NC(=O)[C@@H](N)Cc2ccc(Cl)cc2)CSSC[C@@H](C(=O)N[C@@H](Cc2ccc3ccccc3c2)C(N)=O)NC1=O [compound 10]; 6.99
C[C@@H](O)[C@@H]1NC(=O)[C@H](CCCCN)N(C)C(=O)[C@@H](Cc2c[nH]c3ccccc23)NC(=O)[C@H](Cc2ccc(O)cc2)NC(=O)[C@H](NC(=O)[C@@H](N)Cc2ccc(Cl)cc2)CSSC[C@@H](C(=O)N[C@@H](Cc2ccc3ccccc3c2)C(N)=O)NC1=O [compound 8, reference compound] (H-[Phe(4-Cl)][dC]Y[dW][NMeK]TC[2Nal]-NH2; disulfide 2-7); 7.21
C[C@@H](O)[C@@H]1NC(=O)[C@H](CCCCN)NC(=O)[C@@H](Cc2c[nH]c3ccccc23)NC(=O)[C@H](Cc2ccc(NC(N)=O)cc2)NC(=O)[C@H](NC(=O)[C@@H](N)Cc2ccc(Cl)cc2)CSSC[C@@H](C(N)=O)NC1=O [compound 17] (H-[Phe(4-Cl)][dC][Phe(4-NHCONH2)][dW]KTC-NH2; disulfide 2-7); 6.86
C[C@@H](O)[C@@H]1NC(=O)[C@H](CCCCN)NC(=O)[C@H](Cc2c[nH]c3ccc(F)cc23)NC(=O)[C@H](Cc2ccc(NC(N)=O)cc2)NC(=O)[C@H](NC(=O)[C@@H](N)Cc2ccc(Cl)cc2)CSSC[C@@H](C(=O)N[C@@H](Cc2ccc3ccccc3c2)C(N)=O)NC1=O [compound 26] (H-[Phe(4-Cl)][dC][Phe(4-NHCONH2)][Trp(5-F)]KTC[2Nal]-NH2; disulfide 2-7); 7.05
CC(C)C[C@@H]1NC(=O)[C@H](NC(=O)[C@@H](N)Cc2ccc(Cl)cc2)CSSC[C@@H](C(=O)N[C@@H](Cc2ccc3ccccc3c2)C(N)=O)NC(=O)[C@H]([C@@H](C)O)NC(=O)[C@H](CCCCN)NC(=O)[C@@H](Cc2c[nH]c3ccccc23)NC1=O [compound 11] (H-[Phe(4-Cl)][dC]L[dW]KTC[2Nal]-NH2; disulfide 2-7); 6.47
C[C@@H](O)[C@@H]1NC(=O)[C@H](CCCCN)NC(=O)[C@@H](Cc2ccc(NC(N)=O)cc2)NC(=O)[C@H](Cc2ccc(O)cc2)NC(=O)[C@H](NC(=O)[C@@H](N)Cc2ccc([N+](=O)[O-])cc2)CSSC[C@@H](C(=O)N[C@@H](Cc2ccc3ccccc3c2)C(N)=O)NC1=O [compound 4] (H-[Phe(4-NO2)][dC]Y[dPhe(4-NHCONH2)]KTC[2Nal]-NH2; disulfide 2-7); 6.42
C[C@@H](O)[C@@H]1NC(=O)[C@H](CCCCN)NC(=O)[C@@H](Cc2c[nH]c3ccccc23)NC(=O)[C@H](Cc2ccc(NC(N)=O)cc2)NC(=O)[C@H](NC(=O)[C@@H](N)Cc2ccc(Cl)cc2)CSSC[C@@H](C(=O)N[C@@H](Cc2ccc(NC(N)=O)cc2)C(N)=O)NC1=O [compound 21]; 6.47
C[C@@H](O)[C@@H]1NC(=O)[C@H](CCCCN)NC(=O)[C@@H](Cc2c[nH]c3ccccc23)NC(=O)[C@H](Cc2ccc(NC(N)=O)cc2)NC(=O)[C@H](NC(=O)[C@H](Cc2ccc(Cl)cc2)NC(N)=O)CSSC[C@@H](C(=O)N[C@@H](Cc2ccc3ccccc3c2)C(N)=O)NC1=O [compound 13] (X1-[dC][Phe(4-NHCONH2)][dW]KTC[2Nal]-NH2; disulfide 1-6); 7.27

Task: Please report the recorded pIC50 for C[C@@H](O)[C@@H]1NC(=O)[C@H](CCCCN)NC(=O)[C@@H](Cc2c[nH]c3ccccc23)NC(=O)[C@H](Cc2ccc(NC(N)=O)cc2)NC(=O)[C@H](NC(=O)[C@@H](N)Cc2ccc(Cl)cc2)CSSC[C@@H](C(=O)N[C@@H](CC2CCCCC2)C(N)=O)NC1=O [compound 18] .
Result: 6.59
